Target: human CCR8 (human, UniProt P51685 1-355)
Sequence (P51685 whole entry): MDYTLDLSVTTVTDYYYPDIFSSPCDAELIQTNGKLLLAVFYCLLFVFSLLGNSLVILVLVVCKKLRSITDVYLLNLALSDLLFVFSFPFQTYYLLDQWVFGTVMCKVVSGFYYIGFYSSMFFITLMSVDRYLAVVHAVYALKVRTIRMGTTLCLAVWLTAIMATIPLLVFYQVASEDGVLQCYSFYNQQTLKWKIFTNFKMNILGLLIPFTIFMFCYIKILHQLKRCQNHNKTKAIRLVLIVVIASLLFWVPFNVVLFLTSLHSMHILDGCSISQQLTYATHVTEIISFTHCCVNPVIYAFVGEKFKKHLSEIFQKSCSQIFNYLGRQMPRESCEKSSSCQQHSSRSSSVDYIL
Experiment: cell-based or functional assay
Measured quantity: IC50 antagonism of EC80 Human CCL1 Gαz Biosensor (nM)

{"columns": ["Binder", "Unit abbrev", "Obs value"],
 "data": [
  ["ADI-40327 (antibody, V domains shown) VH: QVQLQESGPGLVKPSETLSLTCAVSGYSISSGYYWGWIRQPPGKGLEWIGSIYHSGNTYYRPSLKSRVTISVDTSKNQFSLKLSSVTAADTAVYYCARGKGGSWTAFGPWGQGTLVTVSS VL: DIQMTQSPSSLSASVGDRVTITCRASQSISSFLNWYQQKPGKAPKLLISAASSLQSGVPSRFSGSGSGTDFTLTISSLQPEDFATYYCQQGHSTPPTFGGGTKVEIK", "nM", 5.46]
]}
